# assay.remarks: Physical stability on storing/drying at 50° C., 70° C., 100° C. (XRPD, Karl-Fisher)
# Format: physicochemical
# condition.context: Initial form
Structures can show the parent of a compound that is named as a salt.
observed.property: KF (%)
Answer format: numeric, % implied, no suffix.

Input line: Give KF for the following compound: COC(=O)N[C@H](C(=O)N1CCC[C@H]1c1ncc(-c2ccc(-c3ccc(-c4cnc([C@@H]5CCCN5C(=O)[C@@H](NC(=O)OC)C(C)C)[nH]4)cc3)cc2)[nH]1)C(C)C [daclatasvir dihydrochloride hydrate]
Output line: 7.99

----------
# assay.remarks: Physical stability on storing/drying at 50° C., 70° C., 100° C. (XRPD, Karl-Fisher)
# Format: physicochemical
# condition.context: Drying at 70° C. for 72 hours
Where a name gives a salt, the structure may show the parent alone.
observed.property: KF (%)
# number only, unit % dropped from output

Input line: Name the recorded KF of the item COC(=O)N[C@H](C(=O)N1CCC[C@H]1c1ncc(-c2ccc(-c3ccc(-c4cnc([C@@H]5CCCN5C(=O)[C@@H](NC(=O)OC)C(C)C)[nH]4)cc3)cc2)[nH]1)C(C)C [daclatasvir dihydrochloride hydrate] in your answer.
Output line: 8.02

----------
# assay.remarks: Physical stability on storing/drying at 50° C., 70° C., 100° C. (XRPD, Karl-Fisher)
# Assay type: physicochemical
# condition.context: Drying at 50° C. for 72 hours
Structures can show the parent of a compound that is named as a salt.
observed.property: KF (%)
API: value field is a number in %; no unit string.

Input line: Check the records and state KF for COC(=O)N[C@H](C(=O)N1CCC[C@H]1c1ncc(-c2ccc(-c3ccc(-c4cnc([C@@H]5CCCN5C(=O)[C@@H](NC(=O)OC)C(C)C)[nH]4)cc3)cc2)[nH]1)C(C)C [daclatasvir dihydrochloride hydrate]
Output line: 8.12

----------
# assay.remarks: Physical stability on storing/drying at 50° C., 70° C., 100° C. (XRPD, Karl-Fisher)
# Assay type: physicochemical
# condition.context: Drying at 70° C. for 15 hours
Structures can show the parent of a compound that is named as a salt.
observed.property: KF (%)
Field: numeric (%). Do not append units.

Input line: Please supply the value of reported KF for the item COC(=O)N[C@H](C(=O)N1CCC[C@H]1c1ncc(-c2ccc(-c3ccc(-c4cnc([C@@H]5CCCN5C(=O)[C@@H](NC(=O)OC)C(C)C)[nH]4)cc3)cc2)[nH]1)C(C)C [daclatasvir dihydrochloride hydrate]
Output line: 8.03

----------
# assay.remarks: Physical stability on storing/drying at 50° C., 70° C., 100° C. (XRPD, Karl-Fisher)
# Assay type: physicochemical
# condition.context: Drying at 100° C. for 15 hours
Counter-ions that a name gives are not always drawn.
observed.property: KF (%)
Write down the numeric answer in % and omit the unit.

Input line: Complete the entry with KF for COC(=O)N[C@H](C(=O)N1CCC[C@H]1c1ncc(-c2ccc(-c3ccc(-c4cnc([C@@H]5CCCN5C(=O)[C@@H](NC(=O)OC)C(C)C)[nH]4)cc3)cc2)[nH]1)C(C)C [daclatasvir dihydrochloride hydrate]
Output line: 8
